These data points were gathered from patent US8741923B2.

target: S1P1 (Homo sapiens (Human), UniProt P21453); assay: 35S-GTPγS binding, S1P1 membranes; details: membranes from CHO cells expressing S1P1
Sequence (P21453 whole entry, species assumed): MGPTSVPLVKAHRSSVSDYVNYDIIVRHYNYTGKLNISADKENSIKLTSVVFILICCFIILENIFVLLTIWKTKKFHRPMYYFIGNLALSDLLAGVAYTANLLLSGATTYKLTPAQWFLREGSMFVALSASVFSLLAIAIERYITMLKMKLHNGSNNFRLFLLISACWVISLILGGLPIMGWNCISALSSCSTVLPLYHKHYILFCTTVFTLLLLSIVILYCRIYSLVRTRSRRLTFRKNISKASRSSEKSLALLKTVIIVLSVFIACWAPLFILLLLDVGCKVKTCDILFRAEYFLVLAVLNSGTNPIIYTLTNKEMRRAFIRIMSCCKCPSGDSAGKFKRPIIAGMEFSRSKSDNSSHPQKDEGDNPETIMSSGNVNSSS
pEC50: −log10 of the molar value.
Label t when pEC50 is at or above 8; otherwise label f.

| COMPOUND | ANSWER_LABEL |
| --- | --- |
| CCc1ccccc1-c1ccc(-c2nc(-c3ccc4c(c3)CN(CCC(=O)O)CC4)no2)cc1COC [Compound 31] | t |
| COCc1cc(-c2nc(-c3ccc4[nH]cnc4c3)no2)ccc1N1CCCCC1C (centres unmarked) [Compound 6] | t |
| CCc1ccccc1-c1ccc(-c2nc(-c3ccc4c(c3)CN(CC(=O)O)CC4)no2)cc1COC [Compound 30] | t |
| COCc1cc(-c2nc(-c3cc(F)c4[nH]cnc4c3)no2)ccc1-c1ccccc1C [Compound 9] | t |
| COCc1cc(-c2nc(-c3ccc4c(c3)CN(CC(=O)O)CC4)no2)ccc1-c1ccccc1C [Compound 16] | t |
| Cc1cc(-c2nc(-c3ccc4c(c3)CN(C(=O)OC(C)(C)C)CC4)no2)cnc1N1CCCC1C (centres unmarked) [Compound 13] | f |
| COCc1cc(-c2nc(-c3cc(C)c4[nH]cnc4c3)no2)ccc1-c1ccccc1C [Compound 26] | f |

====

target: S1P3 (Homo sapiens (Human), UniProt Q99500); assay: 35S-GTPγS binding, S1P3 membranes; details: membranes from CHO cells expressing S1P3
Sequence (Q99500 whole entry, species assumed): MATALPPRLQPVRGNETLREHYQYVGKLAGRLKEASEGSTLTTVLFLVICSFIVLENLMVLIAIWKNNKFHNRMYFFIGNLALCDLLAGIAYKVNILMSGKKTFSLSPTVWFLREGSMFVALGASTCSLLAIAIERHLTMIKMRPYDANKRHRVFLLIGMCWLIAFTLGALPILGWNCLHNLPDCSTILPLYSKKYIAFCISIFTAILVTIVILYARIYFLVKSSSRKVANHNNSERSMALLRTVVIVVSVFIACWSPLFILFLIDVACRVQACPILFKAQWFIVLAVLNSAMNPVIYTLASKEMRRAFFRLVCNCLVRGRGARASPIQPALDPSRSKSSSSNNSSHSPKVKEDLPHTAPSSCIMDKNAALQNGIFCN

| MOLECULE | EC50 |
| --- | --- |
| CC1CCCCN1c1ccc(-c2nc(-c3ccc4c(c3)CNCC4)no2)cc1NS(C)(=O)=O (stereo not shown) | 159 nM |
| COCc1cc(-c2nc(-c3ccc4[nH]cnc4c3)no2)ccc1-c1ccccc1C | 325 nM |
| CC1CCCCN1c1ccc(-c2nc(-c3ccc4[nH]cnc4c3)no2)cc1C(F)(F)F (stereo not shown) | 621 nM |
| CC1CCCCN1c1ccc(-c2nc(-c3ccc4c(c3)CNCC4)no2)cc1C(F)(F)F (stereo not shown) | 584 nM |

====

Attribute: Ki
biological target: UniProt P21453

| INPUT_SMILES | Ki, pM |
| --- | --- |
| Cc1ccccc1-c1ccc(-c2nc(-c3ccc4c(c3)CN(CC(=O)O)CC4)no2)cc1C(F)(F)F | 490 |
| COCc1cc(-c2nc(-c3ccc4c(c3)CNCC4)no2)ccc1-c1ccccc1C | 1000 |
| Cc1ccccc1-c1ccc(-c2nc(-c3ccc4c(c3)CN(CCC(=O)O)CC4)no2)cc1C(F)(F)F | 600 |
| COCc1cc(-c2nc(-c3ccc4c(c3)CCN(CCC(=O)O)C4)no2)ccc1-c1ccccc1C | 1100 |

====

molecular target: UniProt P21453
Please respond with 1 when measured Ki is strictly beneath 4 nM, and with 0 in all other cases.

| COMPOUND | ANSWER_LABEL |
| --- | --- |
| COCc1cc(-c2nc(-c3ccc4[nH]cnc4c3)no2)ccc1-c1ccccc1C [Compound 4] | 0 |
| COc1cc(-c2nc(-c3ccc4[nH]ncc4c3)no2)ccc1-c1cscc1C [Compound 24] | 1 |
| CC1CCCCN1c1ccc(-c2nc(-c3ccc4[nH]cnc4c3)no2)cc1C(F)(F)F (centres unmarked) [Compound 1] | 0 |
| CCC1CCCCN1c1ccc(-c2nc(-c3ccc4[nH]cnc4c3)no2)cc1COC (centres unmarked) [Compound 27] | 0 |
| CC1CCCCN1c1ccc(-c2nc(-c3ccc4c(c3)CNCC4)no2)cc1C(F)(F)F (centres unmarked) [Compound 10] | 1 |
| Cc1ccccc1-c1ccc(-c2nc(-c3ccc4[nH]ncc4c3)no2)cc1C [Compound 25] | 0 |
| CC1CCCCN1c1ccc(-c2nc(-c3ccc4c(c3)CN(CC(=O)O)CC4)no2)cc1C(F)(F)F (centres unmarked) [Compound 38] | 1 |

====

target: S1P1 (Homo sapiens (Human), UniProt P21453); test: 35S-GTPγS binding, S1P1 membranes; conditions: membranes from CHO cells expressing S1P1
pEC50: −log10 of the molar value.
Measured pEC50 of individual entries

| COMPOUND | TARGET_SYSTEM | pEC50 |
| --- | --- | --- |
| COCc1cc(-c2nc(-c3ccc4[nH]cnc4c3)no2)ccc1-c1ccccc1C [Compound 4] | S1P1 (Homo sapiens (Human), UniProt P21453) | 8.08 |
| CC1CCCCN1c1ccc(-c2nc(-c3ccc4c(ccn4C)c3)no2)cc1[N+](=O)[O-] (centres unmarked) [Compound 19] | S1P1 (Homo sapiens (Human), UniProt P21453) | 5.90 |
| COc1cc(-c2nc(-c3ccc4[nH]ncc4c3)no2)ccc1-c1cscc1C [Compound 24] | S1P1 (Homo sapiens (Human), UniProt P21453) | 8.40 |
| Cc1ccccc1-c1ccc(-c2nc(-c3ccc4c(ccn4CC(=O)O)c3)no2)cc1C [Compound 18] | S1P1 (Homo sapiens (Human), UniProt P21453) | 5.52 |
| CC1CCCCN1c1ccc(-c2nc(-c3ccc4[nH]ccc4c3)no2)cc1NS(C)(=O)=O (centres unmarked) [Compound 22] | S1P1 (Homo sapiens (Human), UniProt P21453) | 7.80 |
| CC1CCCCN1c1ccc(-c2nc(-c3ccc4[nH]ccc4c3)no2)cc1C#N (centres unmarked) [Compound 23] | S1P1 (Homo sapiens (Human), UniProt P21453) | 7.38 |
| COCc1cc(-c2nc(-c3ccc4cc(C(=O)O)[nH]c4c3)no2)ccc1-c1ccccc1C [Compound 32] | S1P1 (Homo sapiens (Human), UniProt P21453) | 7.51 |
| Cc1ccccc1-c1ccc(-c2nc(-c3ccc4c(ccn4C)c3)no2)cc1C [Compound 17] | S1P1 (Homo sapiens (Human), UniProt P21453) | 5.88 |

====

molecular target: S1P1 (Homo sapiens (Human)); experiment: 35S-GTPγS binding, S1P1 membranes; settings: membranes from CHO cells expressing S1P1
pEC50: −log10 of the molar value.

| COMPOUND | pEC50 |
| --- | --- |
| COCc1cc(-c2nc(-c3ccc4c(c3)CNCC4)no2)ccc1-c1ccccc1C | 8.22 |
| Cc1cc(-c2nc(-c3ccc4c(c3)CNCC4)no2)cnc1N1CCCC1C (centres unmarked) | 7.19 |
| CCC1CCCCN1c1ccc(-c2nc(-c3ccc4c(c3)CN(CCC(=O)O)CC4)no2)cc1COC (centres unmarked) | 9.05 |
| Cc1cc(-c2noc(-c3ccc(N4CCCCC4C)c(C(F)(F)F)c3)n2)cc2nc[nH]c12 (centres unmarked) | 8.15 |
| CC1CCCCN1c1ccc(-c2nc(-c3ccc4c(c3)CNCC4)no2)cc1C#N (centres unmarked) | 8.05 |
| CCC1CCCCN1c1ccc(-c2nc(-c3ccc4c(c3)CN(CC(=O)O)CC4)no2)cc1COC (centres unmarked) | 8.71 |
| C[C@H]1CCCCN1c1ccc(-c2nc(-c3ccc4[nH]cnc4c3)no2)cc1C(F)(F)F | 8.52 |
| CC1CCCCN1c1ccc(-c2nc(-c3cc(F)c4[nH]cnc4c3)no2)cc1C(F)(F)F (centres unmarked) | 7.85 |

====

target: S1P1 (Homo sapiens (Human), UniProt P21453); test: 35S-GTPγS binding, S1P1 membranes; settings: membranes from CHO cells expressing S1P1
Measured EC50, listed per entry.
RECORDED_METRIC: EC50 (nM)

| COMPOUND | MEASURED |
| --- | --- |
| Cc1ccccc1-c1ccc(-c2nc(-c3ccc4[nH]ncc4c3)no2)cc1C [Compound 25] | 32 |
| CCC1CCCCN1c1ccc(-c2nc(-c3ccc4[nH]cnc4c3)no2)cc1COC (stereo not shown) [Compound 27] | 17 |
| C[C@@H]1CCCCN1c1ccc(-c2nc(-c3ccc4[nH]cnc4c3)no2)cc1C(F)(F)F [Compound 28] | 23 |
| Cc1ccccc1-c1ccc(-c2nc(-c3ccc4nc[nH]c4c3)no2)cc1CN(C)C [Compound 5] | 3.4 |
